# Assay comment: Stability tests of analytes in rat plasma QC samples
# Type: in vitro ADME
# Experimental parameters: rat plasma, nominal conc. 100 nM
What At -80 °C for 48 h, Mean±SD was measured for each of the following?
Entry rule: numbers only, all in nM.

Look up At -80 °C for 48 h, Mean±SD: O=C1CCC[C@@H]2[C@H]3CCCN4CCC[C@@H](CN12)[C@@H]34 106.76

Look up At -80 °C for 48 h, Mean±SD: CC(C)=CCC[C@](C)(O[C@@H]1O[C@H](CO)[C@@H](O)[C@H](O)[C@H]1O)[C@H]1CC[C@]2(C)[C@@H]1[C@H](O)C[C@@H]1[C@@]3(C)CC[C@H](O[C@@H]4O[C@H](CO)[C@@H](O)[C@H](O)[C@H]4O[C@@H]4O[C@H](CO)[C@@H](O)[C@H](O)[C@H]4O)C(C)(C)[C@@H]3CC[C@]12C [Compound D2, Ginsenoside Rd] 94.76

Look up At -80 °C for 48 h, Mean±SD: CC(C)=CCC[C@](C)(O)[C@H]1CC[C@]2(C)[C@@H]1[C@H](O)C[C@@H]1[C@@]3(C)CC[C@H](O)C(C)(C)[C@@H]3[C@@H](O[C@@H]3O[C@H](CO)[C@@H](O)[C@H](O)[C@H]3O)C[C@]12C [Compound C1, Ginsenoside Rh1] 88.26

Look up At -80 °C for 48 h, Mean±SD: CC(C)(O)[C@@H]1CC[C@](C)([C@H]2[C@@H](O)C[C@@]3(C)[C@@H]4C[C@H](O)[C@H]5C(C)(C)[C@@H](O[C@@H]6OC[C@@H](O)[C@H](O)[C@H]6O[C@@H]6O[C@H](CO)[C@@H](O)[C@H](O)[C@H]6O)CC[C@@]56C[C@@]46CC[C@]23C)O1 [Compound B3, Astragaloside III] 89.68

---

What CL renal was measured for each of the following?
# Assay comment: Urinary (renal) excretion in rats after a 30-min infusion of Kang-Ai injection
# Type: in vivo, Sprague–Dawley rats
# Experimental parameters: male, Sprague-Dawley, urine and plasma; rat; Kang-Ai injection 6 mL/kg iv; read-out: CLR (renal excretory clearance) (converted)
Entry rule: numbers only, all in mL/min.

Look up CL renal: CC(C)=CCC[C@](C)(O[C@@H]1O[C@H](CO)[C@@H](O)[C@H](O)[C@H]1O)[C@H]1CC[C@]2(C)[C@@H]1[C@H](O)C[C@@H]1[C@@]3(C)CC[C@H](O[C@@H]4O[C@H](CO)[C@@H](O)[C@H](O)[C@H]4O[C@@H]4O[C@H](CO)[C@@H](O)[C@H](O)[C@H]4O)C(C)(C)[C@@H]3CC[C@]12C [Compound D2, Ginsenoside Rd] 0.0185

Look up CL renal: CC(C)=CCC[C@](C)(O[C@@H]1O[C@H](CO[C@@H]2OC[C@H](O)[C@H](O)[C@H]2O)[C@@H](O)[C@H](O)[C@H]1O)[C@H]1CC[C@]2(C)[C@@H]1[C@H](O)C[C@@H]1[C@@]3(C)CC[C@H](O[C@@H]4O[C@H](CO)[C@@H](O)[C@H](O)[C@H]4O[C@@H]4O[C@H](CO)[C@@H](O)[C@H](O)[C@H]4O)C(C)(C)[C@@H]3CC[C@]12C [Compound D4, Ginsenoside Rb2] 0.0357

Look up CL renal: CC(C)=CCC[C@](C)(O)[C@H]1CC[C@]2(C)[C@@H]1[C@H](O)C[C@@H]1[C@@]3(C)CC[C@H](O)C(C)(C)[C@@H]3[C@@H](O[C@@H]3O[C@H](CO)[C@@H](O)[C@H](O)[C@H]3O[C@@H]3O[C@@H](C)[C@H](O)[C@@H](O)[C@H]3O)C[C@]12C [Compound C5, Ginsenoside Rg2] 0.0552

Look up CL renal: CC(C)=CCC[C@](C)(O[C@@H]1O[C@H](CO)[C@@H](O)[C@H](O)[C@H]1O)[C@H]1CC[C@]2(C)[C@@H]1[C@H](O)C[C@@H]1[C@@]3(C)CC[C@H](O)C(C)(C)[C@@H]3[C@@H](O[C@@H]3O[C@H](CO)[C@@H](O)[C@H](O)[C@H]3O)C[C@]12C [Compound C6, Ginsenoside Rg1] 1.04
